Target: DNA repair protein RAD51 homolog 1 (Homo sapiens) (UniProt Q06609)
Sequence (Q06609 whole entry, the tested form may be a part): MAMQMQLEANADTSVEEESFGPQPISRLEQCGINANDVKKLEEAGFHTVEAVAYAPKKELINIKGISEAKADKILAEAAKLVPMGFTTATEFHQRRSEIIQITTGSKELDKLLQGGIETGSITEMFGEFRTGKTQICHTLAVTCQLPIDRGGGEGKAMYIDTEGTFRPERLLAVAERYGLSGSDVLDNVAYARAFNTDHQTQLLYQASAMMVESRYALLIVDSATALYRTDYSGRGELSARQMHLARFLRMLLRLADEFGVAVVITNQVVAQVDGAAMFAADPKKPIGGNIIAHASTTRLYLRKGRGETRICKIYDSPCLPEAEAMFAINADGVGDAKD
Assay: Binding affinity to RAD51 (158 to 180 residues) (unknown origin) assessed as beta-turn content at 15 uM by circular dichroism spectroscopy (reference value: 16.2%)
Where a SMILES comes first, the peptide text is derived from it. The star is where a group is joined. X5 = O=C(c1ccc[n+]([O-])c1)*; X3 = O=C(c1cccnc1Br)*; X4 = Cc1ccncc1C(=O)*; X6 = O=C(c1cccnc1S)*
ENDPOINT_NAME: Activity

Past entries and their recorded results:
CC(C)C[C@H](NC(=O)[C@H](Cc1ccc(O)cc1)NC(=O)c1ccc[n+]([O-])c1)C(=O)N[C@@H](CCC(N)=O)C(=O)N[C@@H](CC(N)=O)C(=O)N[C@H](C(=O)N[C@@H](Cc1ccccc1)C(=O)N[C@@H](CCCCN)C(=O)N[C@H](C(=O)N[C@@H](CO)C(=O)N[C@@H](CCCCN)C(=O)N[C@@H](CCCNC(=N)N)C(=O)N[C@@H](CCC(N)=O)C(=O)N[C@@H](CO)C(=O)N[C@@H](Cc1ccccc1)C(=O)N[C@@H](C)C(=O)N1CCC[C@H]1C(N)=O)C(C)C)[C@@H](C)O (X5-YLQNTFKVSKRQSFAP-NH2)    14%
CC(C)C[C@H](NC(=O)[C@H](Cc1ccc(O)cc1)NC(=O)c1cccnc1Br)C(=O)N[C@@H](CCC(N)=O)C(=O)N[C@@H](CC(N)=O)C(=O)N[C@H](C(=O)N[C@@H](Cc1ccccc1)C(=O)N[C@@H](CCCCN)C(=O)N[C@H](C(=O)N[C@@H](CO)C(=O)N[C@@H](CCCCN)C(=O)N[C@@H](CCCNC(=N)N)C(=O)N[C@@H](CCC(N)=O)C(=O)N[C@@H](CO)C(=O)N[C@@H](Cc1ccccc1)C(=O)N[C@@H](C)C(=O)N1CCC[C@H]1C(N)=O)C(C)C)[C@@H](C)O (X3-YLQNTFKVSKRQSFAP-NH2)    21.6%
CC(C)C[C@H](NC(=O)[C@H](Cc1ccc(O)cc1)NC(=O)c1cccnc1S)C(=O)N[C@@H](CCC(N)=O)C(=O)N[C@@H](CC(N)=O)C(=O)N[C@H](C(=O)N[C@@H](Cc1ccccc1)C(=O)N[C@@H](CCCCN)C(=O)N[C@H](C(=O)N[C@@H](CO)C(=O)N[C@@H](CCCCN)C(=O)N[C@@H](CCCNC(=N)N)C(=O)N[C@@H](CCC(N)=O)C(=O)N[C@@H](CO)C(=O)N[C@@H](Cc1ccccc1)C(=O)N[C@@H](C)C(=O)N1CCC[C@H]1C(N)=O)C(C)C)[C@@H](C)O (X6-YLQNTFKVSKRQSFAP-NH2)    28.8%

// Activity (DNA repair protein RAD51 homolog 1 (Homo sapiens) (UniProt Q06609)) for Cc1ccncc1C(=O)N[C@@H](Cc1ccc(O)cc1)C(=O)N[C@@H](CC(C)C)C(=O)N[C@@H](CCC(N)=O)C(=O)N[C@@H](CC(N)=O)C(=O)N[C@H](C(=O)N[C@@H](Cc1ccccc1)C(=O)N[C@@H](CCCCN)C(=O)N[C@H](C(=O)N[C@@H](CO)C(=O)N[C@@H](CCCCN)C(=O)N[C@@H](CCCNC(=N)N)C(=O)N[C@@H](CCC(N)=O)C(=O)N[C@@H](CO)C(=O)N[C@@H](Cc1ccccc1)C(=O)N[C@@H](C)C(=O)N1CCC[C@H]1C(N)=O)C(C)C)[C@@H](C)O (X4-YLQNTFKVSKRQSFAP-NH2) = 18.1%
